Test system: c-Src;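 note: 11-residue human phosphosite peptides and single-mutation variants displayed on the E. coli surface, counted by deep sequencing, each peptide's frequency after selection divided by its frequency in the unselected input library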;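 note: frequency after pTyr selection over input frequency; kinase dosed for 20-30% of maximal phosphorylation in three min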
Assay: phosphorylation enrichment, bacterial display (enrichment ratio); higher = better substrate or ligand; peptides without Tyr show the background
Dear colleague, classification is by phosphorylation enrichment, with ranges listed here: range A: < 0.5; range B: ≥ 0.5 and < 0.6; range C: ≥ 0.6

Worked examples, 2 sequences total:
| polymer_sequence | discrete_label |
| --- | --- |
| ALTDNYMYLVI [HAGH_Y61] | range C |
| PVFEVYPLLNC [GATA1_Y78_Q76E] | range C |

Consider PGQAAYQKVVA [HBB_Y131_V127G] . To which phosphorylation enrichment class does it belong? range B

Consider EFLQKYKGFKI [SYNE1_Y6953_YF] . To which phosphorylation enrichment class does it belong? range A

Consider SVTCTYSPALH [TP53_Y126_N131H] . To which phosphorylation enrichment class does it belong? range C

Consider ASFPLYEPAKM [MKI67_Y340] . To which phosphorylation enrichment class does it belong? range C

Consider QEGPEYWDQQT [HLA-A_Y83_E87Q] . To which phosphorylation enrichment class does it belong? range C

Consider GRTPLYMDRQG [AGXT_Y194_G190R] . To which phosphorylation enrichment class does it belong? range B

Consider TMKSRYMELFD [BBS2_Y644_YF] . To which phosphorylation enrichment class does it belong? range A

Consider NGSKAYAYVHF [PABPC5_Y147_G146A] . To which phosphorylation enrichment class does it belong? range A

Consider EEGENYQKGER [CHGB_Y173] . To which phosphorylation enrichment class does it belong? range A

Consider QQMGTYGVRAA [ICAM2_Y260_R256Q] . To which phosphorylation enrichment class does it belong? range C

Consider CDGKEYDPVEA [MAPRE2_Y167_Y162C] . To which phosphorylation enrichment class does it belong? range C

Consider `IKETHYMVDKC` . To which phosphorylation enrichment class does it belong? range A

Consider TTKGSYSLSVR [HCK_Y180] . To which phosphorylation enrichment class does it belong? range B

Consider VHFLVYHHHHH [CACNA1H_Y519_H516Y_YF] . To which phosphorylation enrichment class does it belong? range A
